All values here come from PubChem BioAssay (NCI).

test system: OVCAR-8 ovarian; assay: NCI tumour cell line growth inhibition, 48 h
The reader will find reported TGI values listed item by item below.
measurement_name: TGI

INSERT INTO assay_data (compound, measurement_name, result) VALUES
  ('Cc1cc(-c2ccccc2)nc2oc(=O)n(C)c12', 'TGI', '> 100 µM'),
  ('C=C1C(OC(C)=O)CC(OC(C)=O)C2(C)C(OC(C)=O)C(OC(C)=O)C3=C(C)C(OC(=O)/C=C/c4ccccc4)CC(C(OC(C)=O)C12)C3(C)C (stereo not drawn)', 'TGI', '> 100 µM'),
  ('COC(=O)C1CCc2nnc(-c3ccccc3)n21 (stereo not drawn)', 'TGI', '> 100 µM'),
  ('COC(=O)[C@H](Cc1cn(C)cn1)NC(=O)[C@H](Cc1ccccc1)NC(=O)Nc1cc(C(F)(F)F)cc(C(F)(F)F)c1', 'TGI', '22.7 µM'),
  ('CC(C)(C)OC(=O)Nc1ccc2c(c1)C(NC(=O)Nc1cccc(C#N)c1)CC(C)(C)O2 (stereo not drawn)', 'TGI', '55.7 µM'),
  ('CC[C@H](NC(=O)OC(C)(C)C)C(=O)NCP(=O)(OCc1ccc([N+](=O)[O-])cc1)OCc1ccc([N+](=O)[O-])cc1', 'TGI', '> 100 µM'),
  ('C=C(C)[C@H]1CC23C(=O)[C@@](C)(C[C@H]2C1(C)C)C(=O)C(C(=O)C(C)C)=C3O', 'TGI', '40.2 µM'),
  ('C[C@]12C[C@H](O)[C@H]3[C@@H](CCC4=CC(=O)CC[C@@]43C)[C@@H]1CC[C@@H]2c1csc(-c2ccccc2)n1', 'TGI', '> 100 µM');
